Values were extracted from patent US20200079833A1.

Reported INS1e assay EC50 (cAMP) n2 values are given for each entry in this list.
# Experimental Target: T1, GLP-1R in the INS1e assay (UniProt P32301 22-463, limits assumed)
# T1 sequence (looked up): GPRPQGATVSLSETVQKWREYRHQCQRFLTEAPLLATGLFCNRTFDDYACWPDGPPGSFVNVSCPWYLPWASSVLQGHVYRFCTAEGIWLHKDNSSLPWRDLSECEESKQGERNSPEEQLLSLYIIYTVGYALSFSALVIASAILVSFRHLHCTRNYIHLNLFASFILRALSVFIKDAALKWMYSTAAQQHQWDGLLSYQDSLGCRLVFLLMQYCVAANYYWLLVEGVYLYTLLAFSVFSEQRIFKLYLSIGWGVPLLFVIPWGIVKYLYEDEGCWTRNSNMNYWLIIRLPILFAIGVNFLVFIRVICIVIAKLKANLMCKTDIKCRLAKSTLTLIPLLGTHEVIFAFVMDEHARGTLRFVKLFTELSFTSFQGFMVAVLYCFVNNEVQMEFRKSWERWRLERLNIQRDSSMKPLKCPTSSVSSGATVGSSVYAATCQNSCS
# Assay Remarks: cell-based or functional assay
Starred links: 1 amine or outer side, 2 acyl side, 3 side chain; linkers in the order of their positions; H or OH if unused. Non-standard residues stand in square brackets, D forms with d. Groups on a side chain read outwards from the residue. Primed or numbered codes have the meaning given here. No end group written: not given here. *: point of attachment. Tyr(OMe) = COc1ccc(C[C@H](N[*:1])C(=O)[*:2])cc1; γGlu = O=C(O)[C@H](CCC(=O)[*:2])N[*:1]; Stearoyl = CCCCCCCCCCCCCCCCCC(=O)*; Palmitoyl = CCCCCCCCCCCCCCCC(=O)*; αMeF = C[C@](N)(Cc1ccccc1)C(=O)O; Myristoyl = CCCCCCCCCCCCCC(=O)*; αMeK = C[C@](N)(CCCCN)C(=O)O; Lauroyl = CCCCCCCCCCCC(=O)*; αMeS = C[C@](N)(CO)C(=O)O; Nle = CCCC[C@H](N)C(=O)O; PEG2′ = not defined here; Aib = CC(C)(N)C(=O)O
Readout Kind: INS1e assay EC50 (cAMP) n2 (nM)

Binder	Readout Kind	Unit	Result
H[Aib]EGS[αMeF]TSDVSK([PEG2′-PEG2′-γGlu-Lauroyl])FLEGEAA[αMeK]EFIK([PEG2′-PEG2′-γGlu-Lauroyl])FVVEGG-NH2 [SEQ ID NO: 248]	INS1e assay EC50 (cAMP) n2	nM	0.468
H[Aib]EGS[αMeF]TSDV[αMeS]SK([PEG2′-PEG2′-γGlu-Palmitoyl])LEGEAA[αMeK]EFIK([PEG2′-PEG2′-γGlu-Palmitoyl])WVVEGG-NH2 [SEQ ID NO: 265]	INS1e assay EC50 (cAMP) n2	nM	5.34
H[Aib]EGTFTSDVSK([PEG2′-PEG2′-γGlu-Lauroyl])FLEGEAAEEFIK([PEG2′-PEG2′-γGlu-Lauroyl])FVVEGG-NH2 [SEQ ID NO: 239]	INS1e assay EC50 (cAMP) n2	nM	11.2
H[Aib]EGTFTSDVSK([PEG2′-PEG2′-γGlu-Lauroyl])YLEGEAAEEFIK([PEG2′-PEG2′-γGlu-Lauroyl])WVVEGG-NH2 [SEQ ID NO: 236]	INS1e assay EC50 (cAMP) n2	nM	12.7
H[Aib]EGS[αMeF]TSDK([PEG2′-PEG2′-γGlu-Lauroyl])SSYLEGEAA[αMeK]EFIK([PEG2′-PEG2′-γGlu-Lauroyl])WVVEGG-NH2 [SEQ ID NO: 256]	INS1e assay EC50 (cAMP) n2	nM	1.34
H[Aib]EGS[αMeF]TSDV[αMeS]SK([PEG2′-PEG2′-γGlu-Lauroyl])LEGEAA[αMeK]E[Nle]IAK([PEG2′-PEG2′-γGlu-Lauroyl])VVEGG-NH2 [SEQ ID NO: 407]	INS1e assay EC50 (cAMP) n2	nM	0.0952
H[Aib]EGS[αMeF]TSDV[αMeS]SK([PEG2′-PEG2′-γGlu-Palmitoyl])LEGEAA[αMeK]E[αMeF]IAK([PEG2′-PEG2′-γGlu-Palmitoyl])VVEGG-NH2 [SEQ ID NO: 409]	INS1e assay EC50 (cAMP) n2	nM	0.249
H[Aib]EGS[αMeF]TSDVSK([PEG2′-PEG2′-γGlu-Palmitoyl])FLEGEAAEEFIK([PEG2′-PEG2′-γGlu-Palmitoyl])FVVEGG-NH2 [SEQ ID NO: 247]	INS1e assay EC50 (cAMP) n2	nM	72.1
H[Aib]EGS[αMeF]TSDV[αMeS]SK([PEG2′-PEG2′-γGlu-Lauroyl])LEGEAA[αMeK]EFIAK([PEG2′-PEG2′-γGlu-Lauroyl])VVEGG-NH2 [SEQ ID NO: 263]	INS1e assay EC50 (cAMP) n2	nM	0.144
H[Aib]EGS[αMeF]TSDVSK([PEG2′-PEG2′-γGlu-Lauroyl])FLEGEAAEEFIK([PEG2′-PEG2′-γGlu-Lauroyl])FVVEGG-NH2 [SEQ ID NO: 241]	INS1e assay EC50 (cAMP) n2	nM	6.71
H[Aib]EGS[αMeF]TSDV[αMeS]SK([PEG2′-PEG2′-γGlu-Myristoyl])LEGEAA[αMeK]E[αMeF]IAK([PEG2′-PEG2′-γGlu-Myristoyl])VVEGG-NH2 [SEQ ID NO: 408]	INS1e assay EC50 (cAMP) n2	nM	0.448
H[Aib]EGS[αMeF]TSDV[αMeS]SK([PEG2′-PEG2′-γGlu-Lauroyl])LEGEAA[αMeK]E[Tyr(OMe)]IAK([PEG2′-PEG2′-γGlu-Lauroyl])VVEGG-NH2 [SEQ ID NO: 406]	INS1e assay EC50 (cAMP) n2	nM	0.0872
H[Aib]EGS[αMeF]TSDV[αMeS]SK([PEG2′-PEG2′-γGlu-Stearoyl])LEGEAA[αMeK]E[αMeF]IAK([PEG2′-PEG2′-γGlu-Stearoyl])VVEGG-NH2 [SEQ ID NO: 410]	INS1e assay EC50 (cAMP) n2	nM	0.862
H[Aib]EGS[αMeF]TSDV[αMeS]SK([PEG2′-PEG2′-γGlu-Lauroyl])LEGEAA[αMeK]E[αMeF]IAK([PEG2′-PEG2′-γGlu-Lauroyl])VVEGG-NH2 [SEQ ID NO: 405]	INS1e assay EC50 (cAMP) n2	nM	0.121
H[Aib]EGS[αMeF]TSDVSK([PEG2′-PEG2′-γGlu-Lauroyl])YLEGEAA[αMeK]EFIAK([PEG2′-PEG2′-γGlu-Lauroyl])VVEGG-NH2 [SEQ ID NO: 252]	INS1e assay EC50 (cAMP) n2	nM	0.166
H[Aib]EGS[αMeF]TSDVSK([PEG2′-PEG2′-γGlu-Lauroyl])YLEGEAA[αMeK]EFIK([PEG2′-PEG2′-γGlu-Lauroyl])WVVEGG-NH2 [SEQ ID NO: 249]	INS1e assay EC50 (cAMP) n2	nM	0.41
